# TARGET ENTITY: hTfR1 (Homo sapiens, UniProt P02786)
# Sequence (P02786 whole entry): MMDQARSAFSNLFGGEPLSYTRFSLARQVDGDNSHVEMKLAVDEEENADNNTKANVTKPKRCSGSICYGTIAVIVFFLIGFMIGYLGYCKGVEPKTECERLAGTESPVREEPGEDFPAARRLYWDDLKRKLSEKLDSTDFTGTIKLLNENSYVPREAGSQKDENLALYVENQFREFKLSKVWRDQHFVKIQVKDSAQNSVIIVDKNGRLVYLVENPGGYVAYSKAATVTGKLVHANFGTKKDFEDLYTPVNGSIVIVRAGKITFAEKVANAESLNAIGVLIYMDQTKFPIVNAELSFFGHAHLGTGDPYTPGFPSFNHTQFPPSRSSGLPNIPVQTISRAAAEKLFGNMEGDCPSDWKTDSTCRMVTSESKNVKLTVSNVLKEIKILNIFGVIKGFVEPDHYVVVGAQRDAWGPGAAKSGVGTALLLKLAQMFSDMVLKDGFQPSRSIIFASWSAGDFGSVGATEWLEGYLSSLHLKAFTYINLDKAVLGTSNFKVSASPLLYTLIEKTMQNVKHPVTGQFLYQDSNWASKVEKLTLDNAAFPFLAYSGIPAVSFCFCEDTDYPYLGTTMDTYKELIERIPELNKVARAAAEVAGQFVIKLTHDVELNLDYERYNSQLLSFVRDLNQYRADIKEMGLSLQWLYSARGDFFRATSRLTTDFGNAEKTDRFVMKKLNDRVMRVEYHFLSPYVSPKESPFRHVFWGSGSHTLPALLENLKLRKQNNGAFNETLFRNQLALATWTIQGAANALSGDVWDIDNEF
# ASSAY NAME: Binding kinetics of anti-TfR1 antibodies on Carterra LSA, hTfR1
# TEST PARAMETERS: Carterra LSA at 25 C
ASSAY READOUT: dissociation rate constant (koff) (µM)
Answer format: numeric, µM implied, no suffix.

Prompt line: Return reported dissociation rate constant (koff); argument: 9-K23 (antibody, V domains shown) VH: QVTLKESGPGMLQPSQTLSLTCSFSGFSLNTYDVGVGWIRQPSGKGLEWLANIWWNDDKYYNSALKSRLTISKDTSNNQVFLKISSVDTADTATYYCTLYSYDGGFAYWGQGTLVTVSA VL: QIVLTQSPAIMSASLGERVTMTCTASSSVSSSYLHWYQQKPGSSPKLWIYSTSNLASGVPARFSGSGSGTSYSLTISSMEAEDAATYYCHQYHRSPYTFGGGTKLEIK
Response line: 21.7

Prompt line: Return reported dissociation rate constant (koff); argument: 8-K06 (antibody, V domains shown) VH: QVHLQQPGAELVKPGASVKMSCKASGYTFTSYWITWVKQRPGQGLEWIGDIFPNSGRTNYDEKFKSKATLTVDTSSSTAYMQLSSLTSEDSAVYFCAREGNFGSLDYWGQGTTLTVSS VL: QIVLTQSPAIMSASPGEKVTMTCSANSNLNYMNWYHQKSGTSPKRWIYDTSKLASGVPARFSASGSGTSYSLTISSMEAEDAATYYCQQWSRNPLTFGAGTRLELK
Response line: 10

Prompt line: Return reported dissociation rate constant (koff); argument: 3-A04 (antibody, V domains shown) VH: EVQLQQSGAELVRPGASVKLSCTASGFNIKDDYMYWVKQRPEQGLEWIGWIDPENGDTEYASKFQDKATVTADTSSNTAYLQLSSLTSEDTAVYYCTLWLRRGLDYWGQGTSVTVSS VL: DIVMTQAAPSVPVTPGESVSISCRSSKSLLHSNGYTYLFWFLQRPGQSPQLLIYRMSNLASGVPDRFSGSGSGTAFTLRISRVEAEDVGVYYCMQHLEYPFTFGGGTKLEIK
Response line: 195

Prompt line: Return reported dissociation rate constant (koff); argument: 8-O17 (antibody, V domains shown) VH: QVQLKESGPGLVAPSQSLSITCTVSGFSLTNYGVHWVRQPPGKGLEWLVVIWNDGSATYNSALESRLSISKDNSKSQVFLKMNSLQTDDTAMYYCARHESSNPFAYWGQGTLVTVSA VL: DILLTQSPAILSVSPGERVSFSCRASQSIGTSIHWYQQRTNGSPRLLIKSASESIAGIPSRFSGSGSGTDFTLSINSVESEDIADYYCQQNNRWPYTFGGGTKLEIK
Response line: 91.2

Prompt line: Return reported dissociation rate constant (koff); argument: 8-D15: anti-TfR1 antibody, VH SEQ ID NO: 132, VL SEQ ID NO: 133 (antibody, V domains shown) VH: QVQLKESGPGLVAPSQSLSITCTVSGFSLTSYAITWVRQSPGKGLEWLGLIWTGGGTNYNSALKSRLSISKDNSKSQVFLKMNSLQTDDTARYYCARIYDGYYRYFDVWGTGTTVTVSS VL: RIVLTQTPKFLLVSAGDRVTMTCKASQSVSNDVAWYQQKPGQSPKLLIYYASNRYTGVPDRFTGSGYGTDFTFTISTVQAEDLAVYFCQQDYSSPWTFGGGTKLEIK
Response line: 257

Prompt line: Return reported dissociation rate constant (koff); argument: 2-H19 (antibody, V domains shown) VH: EVQLQQSGAELVRSGASVKLSCTASGFNIKDYYMHWVKQRPEQGLEWIGWIDPESGDTEYAPKFQGRATMTADTSSNTAYMQLSSLTSEDTAVYYCYGHDYRVDCWGQGTSVTVSS VL: DVVMTQTPLSLPVSLGDQASISCRSSQSLVHSNGNTYLHWYLQKPGQSPKLLIYKVSNRFSGVPDRFSGSGSGTDFTLKISRVEAEDLGVYFCSQSTHIPWTFGGGTKLEIK
Response line: 456

Prompt line: Return reported dissociation rate constant (koff); argument: 3-E05 (antibody, V domains shown) VH: EIQMKQSGAELVKPGASVKISCKASGYSFTGYNMNWVKQSHGKSLEWIGNINPYYGSTGYNQKFKGKATLTVDKSSSTAYMQLNSLTSEDSAVYYCARGDYGYDEGTWFAYWGQGTLVTVSA VL: DIVMSQSPSSLAVSAGEKVTMSCKSSQSLLNSRTRKNYLAWYQQKPEQSPKLLIYWASTRESGVPDRFTGSGSGTDFTLTISSVQAEDLAVYYCKQSYNLPFTFGSGTKLEIK
Response line: 10

Prompt line: Return reported dissociation rate constant (koff); argument: 9-C04 (antibody, V domains shown) VH: EVQLMESGGDLVKPGGSLKLSCAASGFTFSSYGLSWVRQTPDKRLEWVATITSGGSYTYYPDSVKGRFTISRDNARNTLYLQMFSLKSEDTAMYYCALWSLDYWGQGTTLTVSS VL: QIVLTQSPAIMSASPGEKVTMTCSANSSLSYMHWYQQKPGTSPKRWIYDTSELASGVPARFSGSGSGTSYSLTISSMEAEDAATYYCHQRRSYPWTFGGGTKLEIK
Response line: 575

Prompt line: Return reported dissociation rate constant (koff); argument: 4-C05 (antibody, V domains shown) VH: QVQLQQSGAELMKPGASVKISCKATGYTFSNYWIEWVKQRPGHGLEWIGEILPGSGSTNYNENFKGKATFTADTSSNTAYMQLSSLTSEDSAVYYCARRGAYGNFHYWGQGTTLTVSS VL: EIVLTQSPALMAASPGEKVTITCSVSSSISSSNLHWYQQKSETSPKPWIYGTSNLASGVPVRFSGSGSGTSYSLTISSMEAEDAATYYCQQWRSYPYTFGGGTKLEIK
Response line: 48.5

Prompt line: Return reported dissociation rate constant (koff); argument: 9-D04 (antibody, V domains shown) VH: QVQLQQSGTELARPGASVKLSCKASGFTFTDYGINWVKQRTGQGLEWIGEIYPSSGNSYYNEKFKAKATLTADKSSSTAYMELRSLTSEDSAVYFCARSTYYGSPIDYWGQGTTLTVSS VL: DIVMTQSHKFMSTPVGDRVSITCKASQDVDTTVAWYQQKPGQSPKLLIYWASTRQIGVPDRFTGSGSGTDFTLTISNVQSEDLADYFCQQYSTYPLTFGGGTKLEIK
Response line: 246

Source: patent US20230144436A1
